These data points were gathered from PubChem BioAssay (NCI).

Assay: NCI Yeast Anticancer Drug Screen. Data for the bub3 strain (AID 167)
Conditions: S. cerevisiae bub3 mutant strain, at 50.0 µM, active compounds read high
Compounds without any hit were thinned out: in the full panel of roughly 79,000, 15% have a hit.
Rule: growth inhibition of 60% or more gives class 1; anything lower gives class 0.

Test whether the compound CCOC(=O)/C=C(\C)Sc1cc(O)c2ccccc2c1O records growth inhibition of 60% or higher.
class 1

Test whether the compound [NH-]c1ccccc1[S-].[NH-]c1ccccc1[S-].[Zn] records growth inhibition of 60% or higher.
class 1

Test whether the compound CN(C)CC(CN(C)C)C(=O)c1ccc(Oc2ccc(Cl)c(Cl)c2)cc1 records growth inhibition of 60% or higher.
class 1

Test whether the compound CS(=O)(=O)OCCN(CCOS(C)(=O)=O)c1ccc(C=Nc2cccc(Cl)c2)cc1 records growth inhibition of 60% or higher.
class 0

Test whether the compound C(C#Cc1ccccc1)#CCc1ccccc1 records growth inhibition of 60% or higher.
class 0

Test whether the compound O=[N+]([O-])c1cc2cccnc2c2ncccc12 records growth inhibition of 60% or higher.
class 0

Test whether the compound O=C1C=CC2=Nc3ccccc3CCC2=C1 records growth inhibition of 60% or higher.
class 1

Test whether the compound COc1ccc(Cc2ccc(N)cc2)cc1 records growth inhibition of 60% or higher.
class 1

Test whether the compound CCN(CC)Cc1c(-c2ccccc2)oc(-c2ccccc2)c1CN(CC)CC records growth inhibition of 60% or higher.
class 0

Test whether the compound CCCCSc1n[nH]c(=O)nc1SC records growth inhibition of 60% or higher.
class 0

Test whether the compound OC(CNc1ccnc2cc(Cl)ccc12)CNc1ccnc2cc(Cl)ccc12 records growth inhibition of 60% or higher.
class 0

* * *

Test: NCI Yeast Anticancer Drug Screen. Data for the mec2-1 strain (AID 157)
Conditions: S. cerevisiae mec2-1 strain, at 50.0 µM (retest, dose inferred, filed as 5.0), active compounds read high
The panel holds about 79,000 compounds, 15% with a hit somewhere; the sample as a whole holds those more often. Activity calls are given as the source filed them. Cut-off read from the data, not from the text of the source: active = growth inhibition above about 70%; inactive = the rest.
MEASURE_NAME: growth inhibition

// lookup growth inhibition for O=C1CCCC/C1=C(\Br)I
100% (active)

// lookup growth inhibition for Cc1cc(O)c2c(c1)C(=O)c1c(c(O)cc(O)c1-c1c(O)cc(O)c3c1C(=O)c1cc(C)cc(O)c1C3=O)C2=O
70% (active)

// lookup growth inhibition for CC(C)C(OC(=O)c1ccc(NCc2cc(O)ccc2O)cc1)C(C)C
99% (active)

// lookup growth inhibition for N=C(N)c1ccc(N=Nc2cc(/C=C/c3ccccc3)ccc2O)cc1
99% (active)

// lookup growth inhibition for NNC(=O)NN=C(c1ccccc1)c1ccccc1
1% (inactive)

// lookup growth inhibition for Oc1ccccc1C(c1ccccc1O)C(Cl)(Cl)Cl
97% (active)

* * *

Test: NCI Yeast Anticancer Drug Screen. Data for the sgs1 mgt1 strain (AID 161);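 further: 0% = growth of cultures given vehicle only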
Conditions: S. cerevisiae sgs1 mgt1 strain, at 50.0 µM, active compounds read high
Description: Growth inhibition of yeast strains with defined genetic alterations is measured as a screen for potential anti-cancer activity. Selected strains with alterations in DNA damage repair or cell cycle control were exposed to compounds and growth inhibition was measured relative to vehicle treated controls. The strain used in this assay is sgs1 mgt1
About 79,000 compounds went through this panel and 15% of them were active in at least one assay; those are over-represented in the sample as a whole.
Rule: growth inhibition of 70% or more gives Satisfied; anything lower gives Not satisfied.

Test whether the compound O=S(=O)(c1ccc(O)cc1)c1ccc(Cl)cc1 records growth inhibition of 70% or higher.
Satisfied

Test whether the compound Cc1c(C)n(-c2ccccc2)c2nc(S(C)(=O)=O)nc(S(C)(=O)=O)c12 records growth inhibition of 70% or higher.
Satisfied

Test whether the compound Nc1ccc2c(c1)[nH]c(=O)c1cccc(Cl)c12 records growth inhibition of 70% or higher.
Not satisfied

Test whether the compound CSc1ncnc2ncn(C3OC(CO)C(O)C3O)c12 (stereo unspecified) records growth inhibition of 70% or higher.
Not satisfied

Test whether the compound Cc1ccc2c(ccc(CC(=S)[S-])[n+]2C)c1 records growth inhibition of 70% or higher.
Not satisfied

Test whether the compound CCOC(=O)N1CCN(c2cc(C)nc3cc(OC)ccc23)CC1 records growth inhibition of 70% or higher.
Not satisfied

Test whether the compound S=C(N/N=C1\C=Cc2ccccc2C1)N/N=C1\C=Cc2ccccc2C1 records growth inhibition of 70% or higher.
Not satisfied

Test whether the compound CC(C)(Sc1cc(Cl)c(Cl)c(Cl)c1)C(=O)OCCN1CCOCC1 records growth inhibition of 70% or higher.
Satisfied

Test whether the compound C=C1C(=O)OC2C1CC1OC2C(C)CCC/C(C)=C\CCC1(C)O (stereo unspecified) records growth inhibition of 70% or higher.
Satisfied

Test whether the compound O=C(O)CCCc1ccc2c(c1Br)C=CC2 records growth inhibition of 70% or higher.
Satisfied

Test whether the compound CCOC(=O)NC(NC(=O)OCC)C(=O)Nc1cccc2c(OC(=O)C(NC(=O)OCC)NC(=O)OCC)c(N=Nc3ccc(S(=O)(=O)Nc4nccs4)cc3)cc(N=Nc3ccc(S(=O)(=O)Nc4nccs4)cc3)c12 (tested in a mixture with another compound) records growth inhibition of 70% or higher.
Not satisfied

Test whether the compound C[C-](O)O.O/C(=C\[C-](O)c1ccccc1)c1ccccc1.O/C(=C\[C-](O)c1ccccc1)c1ccccc1.[Nd+3] (stereo unspecified) records growth inhibition of 70% or higher.
Satisfied

Test whether the compound CCCCCCCCCCCC1=NCCN1CCNCCCC records growth inhibition of 70% or higher.
Not satisfied

Test whether the compound Cc1ccc(S(=O)(=O)Nc2ccc3c(c2)C(=O)c2ccccc2-3)cc1 records growth inhibition of 70% or higher.
Satisfied

Test whether the compound O=C1CSC(c2cccc([N+](=O)[O-])c2)N1c1ccc(-c2ccc(-n3c(-c4ccccc4)nc4ccccc4c3=O)cc2)cc1 (stereo unspecified) records growth inhibition of 70% or higher.
Not satisfied

Test whether the compound CSc1ccc(/C=N/NC(N)=S)cc1 records growth inhibition of 70% or higher.
Satisfied

Test whether the compound CNC(=N)c1ccc(NC(=N)c2ccc(NC(=O)c3ccc(C(=O)Nc4ccc(C(=N)Nc5ccc(C(=N)NC)cc5)cc4)cc3)cc2)cc1 records growth inhibition of 70% or higher.
Not satisfied

Test whether the compound C(C#Cc1ccccc1)#CCc1ccccc1 records growth inhibition of 70% or higher.
Not satisfied

Test whether the compound O=[N+]([O-])c1cccc(S(=O)(=O)N/N=C/c2cc(I)cc([N+](=O)[O-])c2O)c1 records growth inhibition of 70% or higher.
Not satisfied

Test whether the compound NCCSC1(O)C(=O)c2ccccc2-c2ccccc21 (stereo unspecified) records growth inhibition of 70% or higher.
Satisfied
